Entry source: the supplement of paper PMC10567573

B1: LOC100129726 (parent)
chain: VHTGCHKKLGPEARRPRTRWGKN

variants of: B1; test: protein stability index of a GFP-peptide fusion (GPS, HEK-293T) (PSI 1-6); higher = more stable; details: c terminus: native;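 note: lentivirally expressed fusions sorted by FACS into six bins by GFP to DsRed ratio, PSI derived from sequencing read proportions per bin multiplied by bin number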
Answer each item with its documented protein stability index.
Number only, please.

input: Entry under review: C5Q . Reported protein stability index?
output: 1.54

input: R19L ?
output: 3.09

input: // query: T18L
output: 3.05

input: Now the variant T18C
output: 1.63

input: For H2T then?
output: 1.49

input: What about this variant? R19N
output: 2.5

input: Param item: R14V
output: 3.24

input: # repeat for V1R
output: 2.02

input: Next record, please: G4R
output: 2.47

input: Entry E12M please
output: 1.47

input: Repeat for the following variant: V1S
output: 1.99

input: Query R19W next
output: 2.67

input: Another variant to look at: R19M
output: 2.41

input: Moving on to K8M
output: 2.25

input: How about this variant: G21E
output: 4.54

input: Also H6S , if possible.
output: 1.85

input: And for P16H ?
output: 1.39

input: Moving on to G21P
output: 4.47

input: Next entry: G21F
output: 3.36

input: Repeat for the following variant: H6F
output: 1.81

input: Input H2A
output: 2.13

input: Cool, now H2V
output: 2.99

input: Then what about the variant P16Q ?
output: 1.03

input: Same thing, different variant: G4S
output: 2.56

input: Continue with P11K
output: 2.05

input: Follow-up entry: R15V
output: 1.34

input: Also need K7V , thanks.
output: 1.08

input: Input P16E
output: 1.8

input: Param item: G21K
output: 4.43

input: // same read-out, input: N23C
output: 1.61

input: Proceed to W20V
output: 3.67

input: Next entry: V1H
output: 2.43

input: What do you get for P11R ?
output: 1.01

input: Let us now turn to H6Y
output: 2.62

input: Same lookup for T18A , please.
output: 2.96

input: Then what about the variant G21W ?
output: 2.69
